# RUN DESCRIPTION: Pharmacokinetics test in Beagle dogs, oral capsules
# Assay type: in vivo
# TEST SETTINGS: dog, plasma, male Beagle dogs, 5 mg/kg
MEASUREMENT TYPE: AUC(0-t) (ng·h/mL)

{"MOLECULE": "COC(=O)Nc1c(N)nc(-c2nn(Cc3ccccc3F)c3c(F)cccc23)nc1N [Crystal Form XI]", "MEASURE UNIT": "ng·h/mL", "REPORTED MEASUREMENT": 12100}

###

# RUN DESCRIPTION: Pharmacokinetics test in Beagle dogs, oral capsules
# Assay type: in vivo
# TEST SETTINGS: dog, plasma, male Beagle dogs, 5 mg/kg
# Procedure: Male Beagle dogs of 8-12 kg were divided into 3 groups, 3 dogs in each group, and capsules containing test samples were orally administered at a dose of 5 mg/kg, and blood was collected at time points of 0.25, 0.5, 1.0, 2.0, 4.0, 6.0, 8.0 and 24 h. Standard curve was plotted based on concentrations of the samples in a suitable range, the concentration of the test sample in the plasma sample was measured and quantified by AB SCIEX API4000-type LC-MS/MS at MRM mode. […]

{"MOLECULE": "COC(=O)Nc1c(N)nc(-c2nn(Cc3ccccc3F)c3c(F)cccc23)nc1N [Crystal Form XI]", "Cmax": "1140 ng/mL"}

Data provenance is patent US20260207591A1.
